# Tested on: PXR:RXRa (NR concentration 270 nM, RXRa partner concentration 90 nM)
# experimental.details: PBM binding z-score (relative to random genomic background probes); higher = stronger binding; sequences stand for … in GC…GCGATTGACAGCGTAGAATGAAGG
# reported PBM binding z-score; entries follow
Write the value as a bare number.

Q. // fetch PXR:RXRa (NR concentration 270 nM, RXRa partner concentration 90 nM) PBM binding z-score for `TCTAGTTGGTCAAAGGTCACAAACTCGAAATGCG`
A. 5.56

Q. Also, `CCGAGTAGGCTATGGGGCATTCAGGCAACGGTGA` please.
A. -0.862

Q. Also, `ACAGACAGGTGATGAAGGTAACTCACGCTATCAT` please.
A. 0.00932

Q. Also, `TCATAAAGGTAATACAGGTGAAAGTCGGCATCTA` please.
A. 1.05

Q. Also, `TCTGCTAGATCAACGATGGTCAGCTAATCTGCTA` please.
A. -0.434

Q. Also, `TCTTGTAGATCAACAGGAGGTTAAGAATGATCGA` please.
A. 0.825

Q. Also, `ACTATTAGTTGAGACGAGGGCAACGGATAGGTTG` please.
A. 1.32

Q. Also, `CCTACTGGGCCATTCACAGGTCATTGATCATATG` please.
A. 2.11

Q. Also, `TCTATTAGGTGATTAGGGCAACCGAAACAGCGGA` please.
A. 0.422

Q. Also, `CCTACTGGGCCACGAAGGGTCATTGATTCAGTGA` please.
A. 3.23

Q. Also, `TTACCAAGGTGACGGTCGTTGATCCCTCTGTAGA` please.
A. 0.252

Q. Also, `CGTCAAAGTTCAAGGTAACTTAACAGAAAGCAGC` please.
A. 3.79
